biological target: purified full-length human ERβ (Homo sapiens, UniProt Q92731); construct: using purified full-length human ERα and ERβ; experiment: competitive radiometric binding assay, relative binding affinity (RBA); conditions: relative to estradiol = 100
Sequence (Q92731 whole entry): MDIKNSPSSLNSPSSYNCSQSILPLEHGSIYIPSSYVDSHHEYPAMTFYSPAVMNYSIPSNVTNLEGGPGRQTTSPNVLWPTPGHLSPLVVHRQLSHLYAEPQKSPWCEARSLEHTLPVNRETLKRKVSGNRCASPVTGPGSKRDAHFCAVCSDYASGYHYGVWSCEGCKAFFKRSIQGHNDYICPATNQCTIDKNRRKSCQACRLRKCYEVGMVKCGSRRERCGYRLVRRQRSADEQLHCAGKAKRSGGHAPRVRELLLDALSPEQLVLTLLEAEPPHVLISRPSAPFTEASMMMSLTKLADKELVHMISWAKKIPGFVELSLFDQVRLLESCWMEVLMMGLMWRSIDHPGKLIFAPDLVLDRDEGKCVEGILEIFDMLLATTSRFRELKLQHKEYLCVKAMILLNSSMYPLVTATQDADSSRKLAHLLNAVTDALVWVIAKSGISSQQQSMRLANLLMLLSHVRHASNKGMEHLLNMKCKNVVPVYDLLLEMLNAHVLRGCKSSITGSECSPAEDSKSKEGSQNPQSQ
Recorded metric: ERβ RBA (relative binding affinity)

| Compound | Observed result |
| --- | --- |
| Oc1ccc(-c2ccc3c(c2)CCC3O)cc1 (stereo not shown) | 0.190 |
| Cc1cc(-c2cc(C)c(O)c(C)c2)ccc1CO | 0.002 |
| Cc1cc(-c2cccc(CCO)c2)cc(C)c1O | 0.001 |
| Cc1cc(-c2ccc(CCO)cc2)cc(C)c1O | 0.002 |
| Cc1cc(-c2ccc3c(c2)CCCC3O)cc(C)c1O (stereo not shown) | 0.004 |

[I] Cc1cc(-c2ccc(C(C)O)cc2)cc(C)c1O (stereo not shown)
[II] Cc1cc(-c2ccc(O)cc2)cc(C)c1O
[III] Cc1cc(-c2ccc(CO)cc2C(F)(F)F)cc(C)c1O
[ask] Hey, quick one: sort these by ERβ RBA (relative binding affinity), largest value first please. Answer by listing the labels in the requested order.
[reply] II, III, I
